MEASURED ENDPOINT: melting point

So what's the measured melting point for this one? CCCc1nc2c(N)nc3ccccc3c2n1CCCCNC(=O)Nc1ccccc1
183 to 184 °C

What about O=C1CCC2=C(c3ccccc3)c3ccccc3C2N1 (stereo unspecified) ?
213 to 216 °C

Continue with COCCCNc1nc(N)c(SC)c(F)n1
48 to 64 °C

For CC(=O)NC[C@H]1CN(c2ccc(N3CCN(C(=O)OC(C)(C)C)CC3)c(F)c2)C(=O)O1 then?
153 to 159 °C

Next entry: COc1nc(N)nc(OC)n1
218 to 221 °C

---
For the molecule CN1CCC(O)(c2cc(F)c(Br)cc2F)CC1 , what melting point is on record?
133 to 135 °C

Please do the same for N#Cc1ccc(N(Cc2ccc(Br)cc2)n2cnnc2)cc1-c1ccc(O)cc1 as well.
222 to 224 °C
